- target-under-test: Kelch domain of human KEAP1 (321-624 aa) (Homo sapiens (Human))
- Sequence (Q14145 321-624): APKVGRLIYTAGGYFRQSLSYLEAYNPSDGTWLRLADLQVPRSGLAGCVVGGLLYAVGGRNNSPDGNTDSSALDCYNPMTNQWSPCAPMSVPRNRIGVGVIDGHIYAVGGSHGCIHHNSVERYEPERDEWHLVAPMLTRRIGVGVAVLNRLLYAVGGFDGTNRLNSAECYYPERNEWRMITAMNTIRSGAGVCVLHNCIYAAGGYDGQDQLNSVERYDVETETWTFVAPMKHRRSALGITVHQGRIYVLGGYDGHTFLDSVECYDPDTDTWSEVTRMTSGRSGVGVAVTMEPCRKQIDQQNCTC
pKd: −log10 of the molar value.
Listed next: entries and their corresponding pKd.
test-readout: pKd

- compound: "Cc1cnc([C@@H](c2ccn3c(C(F)(F)F)nnc3c2C)C(C)(C)C(=O)O)cc1CN1CC2(CCOCC2)Oc2ncccc2S1(=O)=O (single isomer, unassigned) [Example 56]"
  target-under-test: "Kelch domain of human KEAP1 (321-624 aa) (Homo sapiens (Human))"
  result: "> 9.00"
- compound: "Cc1ccc([C@H](CC(=O)O)c2ccc3c(nnn3C3CC3)c2C)cc1CN1C[C@H]2CCCCN2c2ncccc2S1(=O)=O (single isomer, unassigned) [Example 212]"
  target-under-test: "Kelch domain of human KEAP1 (321-624 aa) (Homo sapiens (Human))"
  result: "> 9.00"
- compound: "Cc1ccc(C(CC(=O)O)c2ccn3c(C(F)(F)F)nnc3c2C)nc1CN1CC2(CC2)Oc2ncc(F)cc2S1(=O)=O (centres unmarked) [Example 508]"
  target-under-test: "Kelch domain of human KEAP1 (321-624 aa) (Homo sapiens (Human))"
  result: "> 9.00"
- compound: "Cc1c([C@@H](CC(=O)O)c2ccc(Cl)c(CN3CC4(COC4)Oc4ncccc4S3(=O)=O)c2)ccn2c(C(F)(F)F)nnc12 (single isomer, unassigned) [Example 88]"
  target-under-test: "Kelch domain of human KEAP1 (321-624 aa) (Homo sapiens (Human))"
  result: 11.00
- compound: "Cc1ccc([C@H](c2ccn3c(C(F)(F)F)nnc3c2C)C(C)(C)C(=O)O)cc1CN1CC2(CCOCC2)Oc2nc(N[C@@H](C)CN3CCCC3)c(C)cc2S1(=O)=O (single isomer, unassigned) [Example 367]"
  target-under-test: "Kelch domain of human KEAP1 (321-624 aa) (Homo sapiens (Human))"
  result: "> 9.00"

----------
Listed here: compounds with reported Kd for Kelch domain of human KEAP1 (321-624 aa) (Homo sapiens (Human), UniProt Q14145).
test-readout: Kd

- compound: "Cc1ccc([C@@H](c2ccn3c(C(F)(F)F)nnc3c2C)C(C)(C)C(=O)O)cc1CN1C[C@@]2(CCOC2)Oc2ncccc2S1(=O)=O (single isomer, unassigned)"
  result: "< 1 nM"
- compound: "Cc1ccc([C@H](c2ccn3c(C(F)(F)F)nnc3c2C)C(C)(C)C(=O)O)cc1CN1CC(C)(C)Oc2ncccc2S1(=O)=O (single isomer, unassigned)"
  result: "< 1 nM"
- compound: "Cc1cnc2c(c1)S(=O)(=O)N(Cc1cc([C@H](c3ccn4c(C(F)(F)F)nnc4c3C)C(C)(C)C(=O)O)cnc1C)CC1(CCOCC1)O2 (single isomer, unassigned)"
  result: "< 1 nM"

----------
- target-under-test: Kelch domain of human KEAP1 (321-624 aa) (Homo sapiens (Human));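 further: Ligand-induced melting temperature shift of E. coli-expressed KEAP1 Kelch protein, Kd estimated from concentration-response curves of ΔTm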
Structures can show the parent of a compound that is named as a salt.
Listed next: entries and their corresponding Kd.

- compound: "CCn1nnc2c(C)c(C(c3cnc(C)c(CN4CC5(CCOCC5)Oc5ncccc5S4(=O)=O)c3)C(C)(C)C(=O)O)ccc21 (racemic)"
  Kd: "2.4 nM"
- compound: "Cc1ccc([C@@H](c2ccn3c(C(F)(F)F)nnc3c2C)C(C)(C)C(=O)O)cc1CN1C[C@@H]2CCCCN2c2ncc(C#N)cc2S1(=O)=O (single isomer, unassigned)"
  Kd: "< 1 nM"
- compound: "Cc1cnc2c(c1)S(=O)(=O)N(Cc1cc([C@@H](c3ccn4c(C(F)(F)F)nnc4c3C)C(C)(C)C(=O)O)ccc1C)CC1(CNC1)O2 (single isomer, unassigned)"
  Kd: "< 1 nM"
- compound: "Cc1ccc([C@H](CC(=O)O)c2ccc3c(nnn3CC3CC3)c2C)cc1CN1CC2(COC2)Oc2ncccc2S1(=O)=O (single isomer, unassigned)"
  Kd: "0.16 nM"
- compound: "Cc1ccc([C@@H](c2ccn3c(C4CC4)nnc3c2C)C(C)(C)C(=O)O)cc1CN1CC2(CCOCC2)Oc2ncccc2S1(=O)=O (single isomer, unassigned)"
  Kd: "< 1 nM"
- compound: "Cc1cnc2c(c1)S(=O)(=O)N(Cc1nc([C@H](CC(=O)O)c3ccn4c(C(F)(F)F)nnc4c3C)ccc1C)C[C@@H]1CCCCN21 (single isomer, unassigned)"
  Kd: "< 1 nM"
- compound: "Cc1ncc([C@H](c2ccc3c(nnn3C3CC3)c2C)C(C)(C)C(=O)O)cc1CN1CC2(CCOCC2)Oc2ncccc2S1(=O)=O (single isomer, unassigned)"
  Kd: "< 1 nM"
- compound: "Cc1ccc(C(CC(=O)O)c2cc(OC(F)F)c3c(c2)nnn3C)cc1CN1C[C@H]2CCCN2c2ncccc2S1(=O)=O (mixture of isomers) [Example 246, Trifluoroacetic Acid Salt]"
  Kd: "< 1 nM"
- compound: "CCn1nnc2c(C)c(C(CC(=O)O)c3ccc(C)c(CN4C[C@H]5CCCN5c5ncccc5S4(=O)=O)c3)ccc21 (stereo partly drawn) [Example 20, Trifluoroacetic Acid Salt]"
  Kd: "0.081 nM"
- compound: "Cc1ccc([C@H](CC(=O)O)c2ccn3c(C(F)(F)F)nnc3c2C)cc1CN1C[C@H]2CCN2c2ncccc2S1(=O)=O (single isomer, unassigned)"
  Kd: "1.61 nM"
- compound: "Cc1ccc([C@H](c2ccn3c(C(F)(F)F)nnc3c2C)C(C)(C)C(=O)O)cc1CN1CC2(CCOCC2)Oc2nc(N[C@H](C)CN3CCCCC3)c(C)cc2S1(=O)=O (single isomer, unassigned)"
  Kd: "< 1 nM"
- compound: "Cc1ccc([C@H](CC(=O)O)c2ccc3c(nnn3CC3CC3)c2C)cc1CN1C[C@H]2CCCCN2c2ncccc2S1(=O)=O (single isomer, unassigned)"
  Kd: "< 1 nM"
- compound: "Cc1ccc(C(CC(=O)O)c2ccc3c(nnn3C)c2C(F)F)cc1CN1CC2CCCN2c2ncccc2S1(=O)=O (stereo not drawn)"
  Kd: "2.6 nM"
- compound: "Cc1cnc2c(c1)S(=O)(=O)N(Cc1cc([C@H](c3ccn4c(C(F)(F)F)nnc4c3C)C(C)(C)C(=O)O)ncc1C)CC1(CC1)O2 (single isomer, unassigned)"
  Kd: "1450 nM"
- compound: "Cc1ccc(C(CC(=O)O)c2cc(OC3CC3)c3c(c2)nnn3C)cc1CN1C[C@H]2CCCN2c2ncccc2S1(=O)=O (stereo partly drawn)"
  Kd: "0.24 nM"
- compound: "CCn1nnc2c(C)c([C@H](CC(=O)O)c3ccc(C)c(CN4CC5(COC5)Oc5ccccc5S4(=O)=O)n3)ccc21 (single isomer, unassigned)"
  Kd: "< 1 nM"
- compound: "Cc1ccc([C@@H](c2ccn3c(C(F)(F)F)nnc3c2C)C(C)(C)C(=O)O)cc1CN1CC2(CC2)Oc2nc(OCCN3CCC(F)CC3)c(C)cc2S1(=O)=O (single isomer, unassigned)"
  Kd: "< 1 nM"
- compound: "Cc1ccc([C@H](CC(=O)O)c2ccn3c(C(F)F)nnc3c2C)cc1CN1CC2(COC2)Oc2ccccc2S1(=O)=O (single isomer, unassigned)"
  Kd: "< 1 nM"
- compound: "Cc1ccc([C@@H](CC(=O)O)c2ccc3c(nnn3CC3CC3)c2C)cc1CN1CC2(CC2)N(C)c2ncccc2S1(=O)=O (single isomer, unassigned)"
  Kd: "5.6 nM"
- compound: "Cc1ccc([C@@H](CC(=O)O)c2ccc3c(nnn3C3CC3)c2C)cc1CN1C[C@]2(C)CCCN2c2ncccc2S1(=O)=O (single isomer, unassigned)"
  Kd: "< 1 nM"
- compound: "CCn1nnc2c(C)c([C@H](CC(=O)O)c3ccc(C)c(CN4C[C@H]5CCCCN5c5ncccc5S4(=O)=O)n3)ccc21 (single isomer, unassigned)"
  Kd: "< 1 nM"

----------
Listed here: compounds with reported Kd for Kelch domain of human KEAP1 (321-624 aa) (Homo sapiens (Human)).

- compound: "CCn1nnc2c(C)c(C(CC(=O)O)c3ccc(C)c(CN4CC5(CC5)Oc5ncccc5S4(=O)=O)n3)ccc21 (racemic)"
  Kd: "< 1 nM"
- compound: "CCn1nnc2c(C)c([C@@H](CC(=O)O)c3ccc(C)c(CN4CC5(CC5)Oc5ncccc5S4(=O)=O)n3)ccc21 (single isomer, unassigned)"
  Kd: "< 1 nM"
- compound: "Cc1ccc([C@H](CC(=O)O)c2ccn3c(C(F)(F)F)nnc3c2C)cc1CN1C[C@H]2CCCCN2c2ccccc2S1(=O)=O (single isomer, unassigned)"
  Kd: "< 1 nM"
- compound: "CC[C@@H]1CN(Cc2nc(C(CC(=O)O)c3ccc4c(nnn4C4CC4)c3C)ccc2C)S(=O)(=O)c2cccnc2O1 (mixture of isomers)"
  Kd: "< 1 nM"
- compound: "Cc1ccc(C(CC(=O)O)c2ccc3c(nnn3CC3CC3)c2C)cc1CN1CC2(COC2)Oc2ccccc2S1(=O)=O (stereo not drawn)"
  Kd: "< 1 nM"
- compound: "Cc1ccc([C@H](c2ccn3c(C(F)(F)F)nnc3c2C)C(C)(C)C(=O)O)cc1CN1C[C@@H]2CCCCN2c2ncc(C#N)cc2S1(=O)=O (single isomer, unassigned)"
  Kd: "< 1 nM"
- compound: "Cc1ccc([C@H](c2cc(C)n3c(C(F)(F)F)nnc3c2C)C(C)C(=O)O)cc1CN1C[C@@H]2CCCCN2c2ncccc2S1(=O)=O (relative stereo)"
  Kd: "< 1 nM"
- compound: "Cc1ccc(C(CC(=O)O)c2ccn3c(C(F)(F)F)nnc3c2C)cc1CN1C[C@H]2CCCN2c2ncccc2S1(=O)=O (stereo partly drawn)"
  Kd: "< 1 nM"
- compound: "Cc1ccc([C@@H](CC(=O)O)c2ccn3c(C(F)(F)F)nnc3c2C)cc1CN1CC2(COC2)Oc2ncccc2S1(=O)=O (single isomer, unassigned)"
  Kd: "< 1 nM"
